SYSTEM UNDER TEST: α-7 nicotinic acetylcholine receptor channel expressed in HEK 293 cells (Rattus norvegicus)
Construct: expressed in transfected cells
ASSAY INFO: Ca2+-sensitive fluorescence-based FLIPR assay, α7 nicotinic ACh receptor channel function (agonist)
Assay type: cell-based
CONDITIONS USED: FLIPR α7 activity rating (EC50, nM), Table 1; HEK 293 cells, agonist Ca2+ flux
RECORDED METRIC: EC50

{"columns": ["COMPOUND", "EC50"],
 "data": [
  ["COCc1cc(NC2=NC[C@@]3(CN4CCC3CC4)O2)ncn1", "100 to 1000 nM"],
  ["CC(=O)Nc1ccc2nc(NC3=NC[C@@]4(CN5CCC4CC5)O3)sc2c1", "< 100 nM"]
]}

Quick one: give measured EC50 for `Clc1ccc2cnc(NC3=NC[C@@]4(CN5CCC4CC5)O3)cc2c1Cl`
< 100 nM

# return recorded EC50 for entry `Clc1ccc(NC2=NC[C@@]3(CN4CCC3CC4)O2)nc1Cl`
< 100 nM

Supply measured EC50 of `Cc1nsc(NC2=NC[C@@]3(CN4CCC3CC4)O2)n1` in your reply.
1000 to 100000 nM

Retrieve EC50 measured for `c1cnc2nc(NC3=NC[C@@]4(CN5CCC4CC5)O3)oc2c1` and print it.
< 100 nM

Recall and state the measured EC50 for c1ccc(Cc2cnc(NC3=NCC4(CN5CCC4CC5)O3)s2)cc1 (stereo not drawn) .
100 to 1000 nM

// Input: `CC(C)c1nc(NC2=NC[C@@]3(CN4CCC3CC4)O2)ncc1Br` . Output its EC50 only.
< 100 nM

Specify reported EC50 for the compound shown: `Brc1cccc(NC2=NC[C@@]3(CN4CCC3CC4)O2)n1`
100 to 1000 nM

====

SYSTEM UNDER TEST: α-7 nicotinic acetylcholine receptor channel expressed in HEK 293 cells (Rattus norvegicus)
Construct: expressed in transfected cells
ASSAY INFO: Ca2+-sensitive fluorescence-based FLIPR assay, α7 nicotinic ACh receptor channel function (agonist)
Format: cell-based
CONDITIONS USED: FLIPR α7 activity rating (EC50, nM), Table 1; HEK 293 cells, agonist Ca2+ flux
RECORDED METRIC: EC50

Guide cases for EC50, answers given:
{"columns": ["MOLECULE", "EC50"],
 "data": [
  ["Cc1ccn2nc(NC3=NCC4(CN5CCC4CC5)O3)nc2c1 (stereo not drawn)", "< 100 nM"],
  ["CC(C)c1csc(NC2=NCC3(CN4CCC3CC4)O2)n1 (single isomer, unassigned) [Example 15a]", "1000 to 100000 nM"]
]}

Now look at this one.
Look up and report measured EC50 for this entry: COc1ccc(-c2csc(NC3=NCC4(CN5CCC4CC5)O3)n2)cc1 (single isomer, unassigned) [Example 20a]
100 to 1000 nM

====

EC50 by entry:
SYSTEM UNDER TEST: α-7 nicotinic acetylcholine receptor channel expressed in HEK 293 cells (Rattus norvegicus, UniProt Q05941)
Construct: expressed in transfected cells
Sequence (Q05941 23-502): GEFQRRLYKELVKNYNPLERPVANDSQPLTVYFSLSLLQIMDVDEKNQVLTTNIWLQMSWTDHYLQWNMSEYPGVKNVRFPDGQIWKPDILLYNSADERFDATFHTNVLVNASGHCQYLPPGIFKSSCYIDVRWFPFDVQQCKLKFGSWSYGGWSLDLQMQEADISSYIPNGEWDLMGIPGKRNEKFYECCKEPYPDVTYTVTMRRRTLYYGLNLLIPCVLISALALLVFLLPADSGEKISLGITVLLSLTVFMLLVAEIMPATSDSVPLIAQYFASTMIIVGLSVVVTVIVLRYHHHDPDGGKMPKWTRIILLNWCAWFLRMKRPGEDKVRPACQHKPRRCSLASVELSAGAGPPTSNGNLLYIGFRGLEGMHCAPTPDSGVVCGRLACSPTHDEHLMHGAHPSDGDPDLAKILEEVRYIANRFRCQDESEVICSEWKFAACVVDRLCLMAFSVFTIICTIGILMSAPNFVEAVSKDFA
ASSAY INFO: Ca2+-sensitive fluorescence-based FLIPR assay, α7 nicotinic ACh receptor channel function (agonist)
Type: cell-based
CONDITIONS USED: FLIPR α7 activity rating (EC50, nM), Table 1; HEK 293 cells, agonist Ca2+ flux
Protocol: I) α7 Nicotinic Acetycholine Receptor Binding. Membranes were prepared for binding using HEK293 cells stably expressing the rat α7 nicotinic acetycholine receptor (rat α7 nAChR). […] II) A Ca^2+-Sensitive, Fluorescence-Based Assay α-7 for Nicotinic Acetylcholine Receptor Channel Function In Mammalian Cells (“FLIPR”). Summary: Lead compounds are evaluated for agonist activity at […], α3β4, […], and α1β1δ1ε sub-types of nicotinic ACh receptor ion channels expressed in mammalian HEK 293 cells. […]

Worked cases, answers included:
{"columns": ["MOLECULE", "EC50"],
 "data": [
  ["Brc1cnc(NC2=NCC3(CN4CCC3CC4)O2)cn1 (centres unmarked) [Example 107]", "100 to 1000 nM"],
  ["CCc1cnc(NC2=NC[C@@]3(CN4CCC3CC4)O2)nc1 [Example 227]", "100 to 1000 nM"]
]}

Return EC50 for the following molecule: CC(C)(C)c1cc(NC2=NCC3(CN4CCC3CC4)O2)ncn1 (racemic) [Example 121]
1000 to 100000 nM

Look up and report measured EC50 for this entry: Cc1csc(NC2=NCC3(CN4CCC3CC4)O2)n1 (centres unmarked) [Example 109]
100 to 1000 nM

Kindly indicate its recorded EC50. Item: COc1ccc2nc(NC3=NC[C@@]4(CN5CCC4CC5)O3)c(C)cc2c1 [Example 179]
100 to 1000 nM

====

Reported EC50 values for the following compounds.
SYSTEM UNDER TEST: α-7 nicotinic acetylcholine receptor channel expressed in HEK 293 cells (Rattus norvegicus)
Construct: expressed in transfected cells
ASSAY INFO: Ca2+-sensitive fluorescence-based FLIPR assay, α7 nicotinic ACh receptor channel function (agonist)
Type: cell-based
CONDITIONS USED: FLIPR α7 (EC50, nM), Table Ib; HEK 293 cells, agonist Ca2+ flux
Express the result in nM but write the number alone.

Solved entries (count: 3):
{"columns": ["COMPOUND", "SCALE UNIT", "EC50"],
 "data": [
  ["Clc1cncc(-c2ccnc(NC3=NC[C@@]4(CN5CCC4CC5)O3)c2)c1 [Example 297]", "nM", 35],
  ["c1ccc(-c2ccnc(NC3=NC[C@@]4(CN5CCC4CC5)O3)c2)cc1 [Example 302]", "nM", 9],
  ["Cc1cc2cnc(NC3=NC[C@@]4(CN5CCC4CC5)O3)cc2cc1C [Example 335]", "nM", 104]
]}

State its EC50: COc1ccc(-c2ccnc(NC3=NC[C@@]4(CN5CCC4CC5)O3)c2)cn1 [Example 298]
25

For Cc1nc(NC2=NC[C@@]3(CN4CCC3CC4)O2)c(Cl)cc1Cl [Example 308] , write its EC50.
59

Report measured EC50; entry is COc1cnc(NC2=NC[C@@]3(CN4CCC3CC4)O2)nc1Cl [Example 317]
660

# return recorded EC50 for entry Cc1nc(NC2=NC[C@@]3(CN4CCC3CC4)O2)cc2cc(F)ccc12 [Example 325]
139

Query EC50 for Fc1ccc(Br)c2cnc(NC3=NC[C@@]4(CN5CCC4CC5)O3)cc12 [Example 346]
310

====

Known EC50 of a selection of compounds
SYSTEM UNDER TEST: α-7 nicotinic acetylcholine receptor channel expressed in HEK 293 cells (Rattus norvegicus, UniProt Q05941)
Construct: expressed in transfected cells
ASSAY INFO: Ca2+-sensitive fluorescence-based FLIPR assay, α7 nicotinic ACh receptor channel function (agonist)
Format: cell-based
CONDITIONS USED: FLIPR α7 activity rating (EC50, nM), Table Ib; HEK 293 cells, agonist Ca2+ flux

Examples from the recorded data:
{"columns": ["COMPOUND STRUCTURE STRING", "EC50"],
 "data": [
  ["Cn1nccc1-c1cc(NC2=NC[C@@]3(CN4CCC3CC4)O2)ncn1", "< 100 nM"],
  ["COc1cc2cnc(NC3=NC[C@@]4(CN5CCC4CC5)O3)cc2cc1OC", "1000 to 100000 nM"],
  ["Cc1cnc2nc(NC3=NC[C@@]4(CN5CCC4CC5)O3)sc2n1", "< 100 nM"],
  ["Fc1ccc2nc(NC3=NC[C@@]4(CN5CCC4CC5)O3)sc2n1", "< 100 nM"],
  ["Fc1cncc(-c2cc(NC3=NC[C@@]4(CN5CCC4CC5)O3)ncn2)c1", "< 100 nM"]
]}

Look up and state reported EC50 for `Cc1cccc(-c2ccnc(NC3=NC[C@@]4(CN5CCC4CC5)O3)c2)c1`
< 100 nM

Please give the documented EC50 of `c1nc(NC2=NC[C@@]3(CN4CCC3CC4)O2)cc(-n2cncn2)n1`
< 100 nM

Provide one value: measured EC50 of `Fc1ncccc1-c1cc(NC2=NC[C@@]3(CN4CCC3CC4)O2)ncn1`
< 100 nM

Give the value of EC50 reported for the following: `Fc1ccc(Br)c2cnc(NC3=NC[C@@]4(CN5CCC4CC5)O3)cc12`
100 to 1000 nM

Report EC50 for `Cc1nc(NC2=NC[C@@]3(CN4CCC3CC4)O2)cc2cc(F)ccc12`
100 to 1000 nM

Give EC50 for the following compound: `COc1cnc(NC2=NC[C@@]3(CN4CCC3CC4)O2)nc1Cl`
100 to 1000 nM

Supply EC50 value. Item: `Fc1ccc(F)c2cc(NC3=NC[C@@]4(CN5CCC4CC5)O3)ncc12`
< 100 nM

Give the value of EC50 reported for the following: `Cc1nc(NC2=NC[C@@]3(CN4CCC3CC4)O2)nc2cc(F)ccc12`
< 100 nM

Answer with the recorded EC50 of `Fc1cnc(NC2=NC[C@@]3(CN4CCC3CC4)O2)nc1` only.
< 100 nM

Name the recorded EC50 of the item `COc1cc2cnc(NC3=NC[C@@]4(CN5CCC4CC5)O3)cc2cc1Cl` in your answer.
< 100 nM
